Sourced from PubChem BioAssay (NCI)

Test system: SK-MEL-2 melanoma
method_notes: NCI-60 one-dose screen, 48 h (100 = growth as untreated, 0 = no growth, -100 = all killed)
condition_context: 10 µM
Compounds without any hit were thinned out: in the full panel of roughly 83,000, 20% have a hit.
Form field: growth (one value per entry).
observed_property: growth (%)

O=C(OCC1OC(n2cc(C(F)(F)F)c(=O)[nH]c2=O)CC1OC(=O)c1ccc([N+](=O)[O-])cc1)c1ccc([N+](=O)[O-])cc1 (stereo not given) = 78
COc1ccc2nc(NC(=O)Nc3c(F)cccc3F)sc2c1 = 114
NCCNc1ccc2cc(-c3nc4ccccc4[nH]3)c(=O)oc2c1 = 106
O=C(COCc1c(-c2ccccc2)no[n+]1[O-])Nc1nc(-c2ccc(Cl)cc2)cs1 = 105
C[C@@H]1C(=O)N(C[C@H](Cc2ccccc2)NC(=O)OCc2ccccc2)[C@]1(Cc1ccccc1)C(=O)OCc1ccccc1 = 42.9
